The entries below are paired with their reported IC50.
Biological target: Phospho-EGFR (Tyr1068) in H1975 cells (Homo sapiens, UniProt P00533, L858R/T790M)
Sequence (P00533 25-1210 T790M/L858R): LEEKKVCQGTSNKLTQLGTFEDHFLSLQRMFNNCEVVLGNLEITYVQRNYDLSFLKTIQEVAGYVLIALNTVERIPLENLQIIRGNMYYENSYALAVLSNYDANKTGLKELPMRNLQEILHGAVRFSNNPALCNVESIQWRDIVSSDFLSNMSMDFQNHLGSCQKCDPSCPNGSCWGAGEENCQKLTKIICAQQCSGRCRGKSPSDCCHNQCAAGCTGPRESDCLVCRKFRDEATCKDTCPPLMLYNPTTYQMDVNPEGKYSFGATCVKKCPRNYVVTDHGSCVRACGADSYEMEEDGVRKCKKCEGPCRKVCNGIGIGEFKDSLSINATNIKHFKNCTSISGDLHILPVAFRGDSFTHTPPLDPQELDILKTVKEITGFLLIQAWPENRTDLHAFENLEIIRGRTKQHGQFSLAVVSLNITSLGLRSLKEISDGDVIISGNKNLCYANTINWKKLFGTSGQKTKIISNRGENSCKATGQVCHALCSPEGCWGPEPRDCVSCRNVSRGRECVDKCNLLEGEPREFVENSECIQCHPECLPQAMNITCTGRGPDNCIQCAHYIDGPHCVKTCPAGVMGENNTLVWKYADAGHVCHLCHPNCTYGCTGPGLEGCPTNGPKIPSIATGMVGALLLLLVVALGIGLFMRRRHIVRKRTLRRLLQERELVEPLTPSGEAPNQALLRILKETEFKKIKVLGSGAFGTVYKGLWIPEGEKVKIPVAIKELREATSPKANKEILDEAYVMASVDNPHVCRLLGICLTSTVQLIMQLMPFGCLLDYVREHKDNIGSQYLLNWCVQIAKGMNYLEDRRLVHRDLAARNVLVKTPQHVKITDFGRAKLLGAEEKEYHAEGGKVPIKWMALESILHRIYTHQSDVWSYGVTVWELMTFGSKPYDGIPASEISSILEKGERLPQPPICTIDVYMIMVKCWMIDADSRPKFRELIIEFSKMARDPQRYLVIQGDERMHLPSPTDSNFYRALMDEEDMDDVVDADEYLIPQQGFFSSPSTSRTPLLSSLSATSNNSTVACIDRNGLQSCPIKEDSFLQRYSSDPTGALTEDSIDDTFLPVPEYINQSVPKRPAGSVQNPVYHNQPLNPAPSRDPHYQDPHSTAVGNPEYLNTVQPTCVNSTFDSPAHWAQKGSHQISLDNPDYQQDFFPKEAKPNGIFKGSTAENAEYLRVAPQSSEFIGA
Assay: HTRF pEGFR/total EGFR in H1975 cells
Settings: ratio pEGFR/total EGFR, compound 3 hours

Reference set, count: 5
MOLECULE: C#Cc1cc(=O)n(-c2ccccc2)c2nc(Nc3ccc(N4CCOCC4)cc3)ncc12
IC50: < 500 nM
//
MOLECULE: C#Cc1cc(=O)n(-c2ccccc2)c2nc(Nc3ccc(N4CCN(CC)CC4)cc3)ncc12
IC50: < 500 nM
//
MOLECULE: C#Cc1c(C)c(=O)n(Cc2cnn(C)c2)c2nc(Nc3ccc(N4CCN(C)CC4)cc3)ncc12
IC50: 1000 to 3000 nM
//
MOLECULE: C#Cc1c(-c2cccc(F)c2Cl)c(=O)n(C)c2nc(Nc3ccc(N(C)CCN(C)C)cc3)ncc12
IC50: 500 to 1000 nM
//
MOLECULE: C#Cc1cc(=O)n([C@H]2CC[C@@H](NC(C)=O)CC2)c2nc(Nc3ccc(N(C)CCN(C)C)cc3)ncc12
IC50: < 500 nM

INPUT: Any idea what its IC50 is? The molecule is "C#Cc1cc(=O)n(CC2CCCC2)c2nc(Nc3ccc(N4CCN(C)CC4)cc3)ncc12"
OUTPUT: < 500 nM

INPUT: Try the molecule "C#Cc1cc(=O)n(-c2ccccc2)c2nc(Nc3ccc(N4CCN(C)CC4)cc3)ncc12"
OUTPUT: < 500 nM

INPUT: Repeat with "C=Cc1c(-c2ccccc2Cl)c(=O)n(C)c2nc(Nc3ccc(OCCN(C)C)cc3)ncc12"
OUTPUT: > 3000 nM

INPUT: Proceed to "C#Cc1c(-c2ccccc2Cl)c(=O)n(C)c2nc(Nc3cccc(OC)c3)ncc12"
OUTPUT: 1000 to 3000 nM

INPUT: Next molecule: "C#Cc1cc(=O)[nH]c2nc(Nc3ccccc3OC)ncc12"
OUTPUT: > 3000 nM

INPUT: Then what about the molecule "C#Cc1c(C)c(=O)n(Cc2cnoc2)c2nc(Nc3ccc(N4CCN(C)CC4)cc3)ncc12" ?
OUTPUT: > 3000 nM

INPUT: And "C#Cc1cc(=O)n(-c2ccccc2)c2nc(NC3CCN(S(C)(=O)=O)CC3)ncc12" ?
OUTPUT: > 3000 nM

INPUT: Okay, and "C#Cc1cc(=O)n(C)c2nc(Nc3ccc(OCCN(C)C)cc3)ncc12" ?
OUTPUT: < 500 nM

INPUT: Also "C#Cc1c(C)c(=O)n(Cc2ccccn2)c2nc(Nc3ccc(N4CCN(C)CC4)cc3)ncc12" , if possible.
OUTPUT: 500 to 1000 nM

INPUT: Then "C#Cc1cc(=O)n(-c2ccccc2)c2nc(Nc3ccc(N4CCC(N5CC(F)(CO)C5)CC4)cc3)ncc12" ?
OUTPUT: < 500 nM

---

Biological target: Phospho-EGFR (Tyr1068) in H1975 C797S cells (CRISPR-edited EGFR C797S) (Homo sapiens, UniProt P00533, C797S/L858R/T790M)
Sequence (P00533 25-1210 T790M/C797S/L858R): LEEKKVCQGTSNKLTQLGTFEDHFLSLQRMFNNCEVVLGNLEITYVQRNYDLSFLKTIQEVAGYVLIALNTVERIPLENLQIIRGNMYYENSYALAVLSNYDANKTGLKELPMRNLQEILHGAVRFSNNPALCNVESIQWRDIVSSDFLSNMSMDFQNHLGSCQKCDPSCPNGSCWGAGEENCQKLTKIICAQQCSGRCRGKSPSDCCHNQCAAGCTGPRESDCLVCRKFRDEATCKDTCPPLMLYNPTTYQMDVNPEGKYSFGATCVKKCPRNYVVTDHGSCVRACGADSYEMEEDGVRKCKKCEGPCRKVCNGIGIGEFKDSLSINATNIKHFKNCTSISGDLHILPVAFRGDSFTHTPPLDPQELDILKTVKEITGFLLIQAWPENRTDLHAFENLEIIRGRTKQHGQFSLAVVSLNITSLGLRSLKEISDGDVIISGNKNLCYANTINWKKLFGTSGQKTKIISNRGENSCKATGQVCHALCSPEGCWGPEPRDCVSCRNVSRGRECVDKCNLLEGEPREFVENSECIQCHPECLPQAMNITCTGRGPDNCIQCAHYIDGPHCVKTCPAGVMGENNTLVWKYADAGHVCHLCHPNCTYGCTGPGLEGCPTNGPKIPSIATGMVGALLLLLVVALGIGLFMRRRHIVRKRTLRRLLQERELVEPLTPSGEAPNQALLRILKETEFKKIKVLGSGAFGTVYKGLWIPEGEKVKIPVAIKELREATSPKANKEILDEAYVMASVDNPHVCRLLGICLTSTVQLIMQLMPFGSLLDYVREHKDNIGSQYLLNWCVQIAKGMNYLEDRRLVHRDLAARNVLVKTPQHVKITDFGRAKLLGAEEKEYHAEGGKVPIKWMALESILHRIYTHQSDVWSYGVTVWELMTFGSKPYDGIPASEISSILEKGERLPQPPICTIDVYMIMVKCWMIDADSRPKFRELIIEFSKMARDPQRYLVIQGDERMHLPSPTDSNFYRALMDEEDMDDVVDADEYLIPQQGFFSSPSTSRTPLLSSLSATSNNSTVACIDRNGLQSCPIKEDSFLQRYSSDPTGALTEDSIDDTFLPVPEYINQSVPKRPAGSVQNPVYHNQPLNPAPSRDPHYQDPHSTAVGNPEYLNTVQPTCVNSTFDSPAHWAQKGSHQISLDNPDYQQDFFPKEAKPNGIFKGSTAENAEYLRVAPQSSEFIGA
Experiment: HTRF pEGFR/total EGFR in H1975 C797S cells
Settings: ratio pEGFR/total EGFR, compound 3 hours
Description: […]. Once adhered (after 24 h) cells were treated with compounds dissolved in DMSO at a final concentration of 0.1% DMSO in media. Compounds were diluted in media then added to cells for 3 hours in duplicate. […] Cells were lysed on a plate shaker (2000 rpm) for 30 minutes at room temperature. pEGFR expression was monitored using the Cisbio Phospho-EGFR (Tyr1068) cellular kit (64EG1PEH). […] Fluorescence emission was read at two different wavelengths (665 nm and 620 nm) on a PheraStar. […]
OBSERVED_PROPERTY: IC50

Example cases with answers are listed next.
COMPOUND: C#Cc1cc(=O)n(C2CCCC2)c2nc(Nc3cccc(CN4CCC(CS(C)(=O)=O)CC4)c3)ncc12
IC50: > 3 µM

COMPOUND: C#Cc1c(C)c(=O)n(-c2ccccc2)c2nc(Nc3ccc(N4CCN(C)CC4)cc3)ncc12
IC50: 0.5 to 1 µM

COMPOUND: C#Cc1c(C)c(=O)n2c3nc(ncc13)Nc1ccc(N3CCN(C)CC3)c(c1)OCCCC2
IC50: < 0.5 µM

COMPOUND: C#Cc1cc(=O)n(C2CCOC2)c2nc(Nc3ccc(N4CCN(C)CC4)cc3)ncc12 (stereo not drawn)
IC50: 1 to 3 µM

COMPOUND: C#Cc1cc(=O)n([C@H]2CC[C@@H](NC(C)=O)CC2)c2nc(Nc3ccc(N(C)CCN(C)C)cc3)ncc12
IC50: < 0.5 µM

COMPOUND: C#Cc1c(C)c(=O)n(Cc2ncc[nH]2)c2nc(Nc3ccc(N4CCN(C)CC4)cc3)ncc12
IC50: > 3 µM

INPUT: Using the record for "C#Cc1cc(=O)n([C@H]2CC[C@@H](NC(=O)CCC(=O)OC)CC2)c2nc(Nc3ccc(N4CCN(C)CC4)cc3)ncc12" , report its IC50.
OUTPUT: > 3 µM

INPUT: Now give it for "C#Cc1cc(=O)n(-c2ccccc2)c2nc(Nc3ccc(C4CCNCC4)cc3)ncc12" too.
OUTPUT: < 0.5 µM

INPUT: Another compound to look at: "C#Cc1cc(=O)n2c3nc(ncc13)Nc1ccc(N3CCN(C)CC3)c(c1)CNC(=O)CCC2"
OUTPUT: 0.5 to 1 µM

INPUT: Check "C#Cc1cc(=O)n(C)c2nc(Nc3ccc(N4CCN(C)CC4)c(NC(=O)CC)c3)ncc12" too.
OUTPUT: < 0.5 µM

INPUT: Would you mind doing "C#Cc1c(C)c(=O)n(Cc2ccn[nH]2)c2nc(Nc3ccc(N4CCN(C)CC4)cc3)ncc12" as well?
OUTPUT: 1 to 3 µM

INPUT: Further, for "C#Cc1cc(=O)n2c3nc(ncc13)Nc1ccc(N3CCN(C)CC3)c(c1)OCCCCCC2" ?
OUTPUT: < 0.5 µM

INPUT: Now consider "C#Cc1cc(=O)n([C@H]2CC[C@H](NC(=O)c3ccnnc3)CC2)c2nc(Nc3ccc(N4CCN(C)CC4)cc3)ncc12" and answer again.
OUTPUT: < 0.5 µM

INPUT: Another compound to check: "C#Cc1c(C2CC2)c(=O)n(C)c2nc(Nc3ccc(N4CCN(C)CC4)cc3)ncc12"
OUTPUT: > 3 µM

INPUT: Now consider "C#Cc1cc(=O)n(-c2ccccc2)c2nc(Nc3ccc(N4CCN(C5COC5)CC4)cc3)ncc12" .
OUTPUT: < 0.5 µM
